Numbers sourced from paper PMC9036822.

# Assayed system: PRMT5 C278A mutant (Homo sapiens, UniProt O14744, C278A)
# Sequence (O14744 whole entry C278A): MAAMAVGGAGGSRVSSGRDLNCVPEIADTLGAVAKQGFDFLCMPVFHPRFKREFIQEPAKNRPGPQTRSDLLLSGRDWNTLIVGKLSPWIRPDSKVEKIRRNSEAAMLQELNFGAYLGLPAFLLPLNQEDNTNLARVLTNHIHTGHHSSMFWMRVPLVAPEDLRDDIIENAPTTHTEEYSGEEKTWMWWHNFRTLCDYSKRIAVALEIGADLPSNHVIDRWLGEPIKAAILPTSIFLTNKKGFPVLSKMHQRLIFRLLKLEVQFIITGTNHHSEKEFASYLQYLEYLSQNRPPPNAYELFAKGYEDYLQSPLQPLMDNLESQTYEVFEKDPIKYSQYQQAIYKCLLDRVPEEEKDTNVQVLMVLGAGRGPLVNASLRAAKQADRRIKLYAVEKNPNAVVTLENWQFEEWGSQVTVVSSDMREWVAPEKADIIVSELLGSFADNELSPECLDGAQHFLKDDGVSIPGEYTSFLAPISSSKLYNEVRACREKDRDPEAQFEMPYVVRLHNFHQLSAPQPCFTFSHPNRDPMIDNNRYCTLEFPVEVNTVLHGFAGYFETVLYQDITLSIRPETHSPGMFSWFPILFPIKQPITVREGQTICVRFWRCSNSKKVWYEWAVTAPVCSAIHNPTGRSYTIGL
# Sequence (Q9BQA1 whole entry partner): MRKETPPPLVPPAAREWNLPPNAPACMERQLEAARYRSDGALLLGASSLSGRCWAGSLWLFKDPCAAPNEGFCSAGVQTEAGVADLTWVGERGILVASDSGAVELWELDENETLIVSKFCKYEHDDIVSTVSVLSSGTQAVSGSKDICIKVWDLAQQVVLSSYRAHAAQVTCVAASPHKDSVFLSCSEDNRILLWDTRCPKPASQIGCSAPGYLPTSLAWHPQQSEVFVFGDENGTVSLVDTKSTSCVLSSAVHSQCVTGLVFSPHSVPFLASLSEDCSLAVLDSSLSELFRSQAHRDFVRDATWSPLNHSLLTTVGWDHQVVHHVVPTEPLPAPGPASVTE
# Assay info: FP competition assay with C278A mutant PRMT5
Experimental endpoint: IC50

Item: `Cc1ccc(NC(=O)Cn2ncc(Cl)c(Cl)c2=O)cc1S(=O)(=O)NCCc1ccccn1` | IC50: > 100 µM

---

# Assayed system: PRMT5:WDR77 hetero-octameric complex (Homo sapiens, UniProt O14744)
# Sequence (O14744 whole entry): as the sequence (O14744 whole entry C278A) above, with A278C counted along it
# Sequence (Q9BQA1 whole entry partner): as the sequence (Q9BQA1 whole entry partner) above
# Assay info: Fluorescence polarization
# Type: binding
Experimental endpoint: pIC50
Numbers only, as −log10 of the molar value.

Item: `Cc1ccc(NC(=O)Cn2ncc(Cl)c(Cl)c2=O)cc1S(=O)(=O)NCCc1ccccn1` | pIC50: 6.22
